These entries and their values trace back to paper PMC8480782.

assay_system: LiTryR dimer (Leishmania infantum)
Sequence (A4HSF7 1-491): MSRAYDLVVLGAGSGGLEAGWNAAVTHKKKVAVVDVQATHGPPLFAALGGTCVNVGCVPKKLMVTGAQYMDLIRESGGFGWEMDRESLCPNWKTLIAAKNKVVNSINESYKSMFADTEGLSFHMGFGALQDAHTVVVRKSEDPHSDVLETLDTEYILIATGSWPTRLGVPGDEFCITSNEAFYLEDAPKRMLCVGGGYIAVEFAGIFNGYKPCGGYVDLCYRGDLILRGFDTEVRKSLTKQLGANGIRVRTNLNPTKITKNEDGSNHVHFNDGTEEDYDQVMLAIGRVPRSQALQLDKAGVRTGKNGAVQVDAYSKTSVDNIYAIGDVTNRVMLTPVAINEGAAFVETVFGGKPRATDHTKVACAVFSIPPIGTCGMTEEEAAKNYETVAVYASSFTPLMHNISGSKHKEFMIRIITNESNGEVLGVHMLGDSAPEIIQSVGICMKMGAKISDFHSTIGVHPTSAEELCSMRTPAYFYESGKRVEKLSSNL
assay_details: biochemical
condition_label: 400 nM LiTryR, 16 h at 37 °C; read-out: IC50^dim, LiTryR monomer displacement (dimer quantitation ELISA)

compound | IC50
NCCCCc1cn(-c2ccc(-c3nc(CCc4ccc5oc6ccccc6c5c4)cs3)c(OCCN3CCNC3=O)c2)nn1.O=C(O)C(F)(F)F [12s] | 8.8 µM
NCCCCc1cn(-c2ccc(-c3nc(CCc4ccc(-c5ccccc5)cc4)cs3)c(OCCN3CCNC3=O)c2)nn1.O=C(O)C(F)(F)F [12c] | 4.8 µM
NCCCCc1cn(-c2ccc(-c3nc(-c4ccccc4)c(-c4ccccc4)s3)c(OCCN3CCNC3=O)c2)nn1.O=C(O)C(F)(F)F [19a] | 7.1 µM
NCCCCc1cn(-c2ccc(-c3nc(-c4ccc(-c5ccccc5)cc4)c(-c4ccccc4)s3)c(OCCN3CCNC3=O)c2)nn1.O=C(O)C(F)(F)F [19b] | 11.3 µM
O=C1NCCN1CCOc1cc(Br)ccc1-c1nc(CCc2ccccc2)cs1 | > 75 µM
COc1cc(-n2cc(CCCCN)nn2)ccc1-c1nc(CCc2ccc(-c3ccccc3)cc2)cs1.O=C(O)C(F)(F)F [12k] | 16.1 µM
NCCCCc1cn(-c2ccc(-c3nc(CCc4ccc(Oc5ccccc5)cc4)c(-c4ccccc4)s3)c(OCCN3CCNC3=O)c2)nn1.O=C(O)C(F)(F)F [19e] | 6.7 µM

---

assay_system: LiTryR (Leishmania infantum)
Construct: HIS (N); made in house; host or cells: E. coli BL21 (DE3) Rossetta
assay_details: Time-dependent inhibition kinetics of LiTryR (modified DTNB-coupled assay)
Format: biochemical
condition_label: [TS2] 100 μM; read-out: Ki*^app
pKi: −log10 of the molar value.
parameter_measured: pKi

compound | experimental_value
NCCCCc1cn(-c2ccc(-c3nc(-c4ccccc4)c(-c4ccccc4)s3)c(OCCN3CCNC3=O)c2)nn1.O=C(O)C(F)(F)F [19a] | 5.89

---

Record type: pIC50 measurement. Applies to: TcoTryR (Trypanosoma congolense)
pIC50: −log10 of the molar value.

compound | pIC50
NCCCCc1cn(-c2ccc(-c3nc(CCc4ccc(-c5ccccc5)cc4)cs3)c(OCCN3CCNC3=O)c2)nn1.O=C(O)C(F)(F)F [12c] | 5.32
NCCCCc1cn(-c2ccc(-c3nc(CCc4ccc5ccccc5c4)cs3)c(OCCN3CCNC3=O)c2)nn1.O=C(O)C(F)(F)F [12b] | 5.32
NCCCCc1cn(-c2ccc(-c3nc(-c4ccccc4)cs3)c(OCCN3CCNC3=O)c2)nn1.O=C(O)C(F)(F)F [12n] | 5.03
NCCCCc1cn(-c2ccc(-c3nc(CCc4ccccc4)cs3)c(OCCN3CCNC3=O)c2)nn1 [12a] | 4.96

---

assay_system: LiTryR (Leishmania infantum, UniProt A4HSF7)
Construct: HIS (N); made in house; host or cells: E. coli BL21 (DE3) Rossetta
Sequence (A4HSF7 1-491): as above
assay_details: Time-dependent inhibition kinetics of LiTryR (modified DTNB-coupled assay)
Type: biochemical
condition_label: fit of Ki*^app to eq 4; read-out: Ki* (overall two-step process)

compound | Ki (µM)
NCCCCc1cn(-c2ccc(-c3nc(-c4ccccc4)c(-c4ccccc4)s3)c(OCCN3CCNC3=O)c2)nn1.O=C(O)C(F)(F)F [19a] | 0.5
NCCCCc1cn(-c2ccc(-c3nc(CCc4ccc5ccccc5c4)cs3)c(OCCN3CCNC3=O)c2)nn1.O=C(O)C(F)(F)F [12b] | 2.6
